- ASSAYED TARGET: ERα in MCF7 cells (Homo sapiens (Human), UniProt P03372)
- Sequence (P03372 whole entry): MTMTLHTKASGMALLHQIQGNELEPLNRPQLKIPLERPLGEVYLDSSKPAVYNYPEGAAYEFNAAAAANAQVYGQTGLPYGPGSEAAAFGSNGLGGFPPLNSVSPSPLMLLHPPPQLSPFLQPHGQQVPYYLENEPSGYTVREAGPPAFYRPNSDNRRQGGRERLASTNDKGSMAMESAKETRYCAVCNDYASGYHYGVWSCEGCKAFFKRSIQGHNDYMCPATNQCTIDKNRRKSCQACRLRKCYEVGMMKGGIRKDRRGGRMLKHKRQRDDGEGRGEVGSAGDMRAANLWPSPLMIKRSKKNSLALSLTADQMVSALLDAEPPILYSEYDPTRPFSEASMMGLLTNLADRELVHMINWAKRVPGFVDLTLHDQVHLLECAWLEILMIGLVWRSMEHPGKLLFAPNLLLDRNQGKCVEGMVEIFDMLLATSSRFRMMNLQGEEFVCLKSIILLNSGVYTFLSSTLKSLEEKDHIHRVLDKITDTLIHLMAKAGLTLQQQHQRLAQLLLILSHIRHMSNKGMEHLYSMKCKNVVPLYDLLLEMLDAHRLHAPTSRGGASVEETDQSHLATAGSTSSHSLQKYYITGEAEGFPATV
- EXPERIMENT NOTES: Test C: estrogen receptor degradation activity, ERα in cell western assay in MCF7 cells
- Format: cell-based
- REPORTED CONDITIONS: 4 hours post compound addition, ERα in cell western, read-out: Degradation IC50
RESULT TYPE: DC50 (nM)
Entry rule: numbers only, all in nM.

// known answers, use as guide
COc1ccc(C2=C(c3ccc(O[C@H]4CCN(CCCF)C4)cc3)c3ccc(O)cc3SC2)c(F)c1 [Example 24] | 0.2
Oc1cc2c(cc1Cl)C(c1ccc(O[C@H]3CCN(CCCF)C3)cc1)=C(c1ccc3[nH]ccc3c1)CCO2 [Example 144] | 18
Oc1ccc(C2=C(c3ccc(O[C@H]4CCN(CCCF)C4)cc3)c3ccc(O)cc3OCC2)c(F)c1 [Example 94] | 0.2

Please report the recorded DC50 for Cc1ccc(C2=C(c3ccc(O[C@H]4CCN(CCCF)C4)cc3)c3cc(Cl)c(O)cc3OCC2)c(F)c1 [Example 145] . 0.5

###

Documented log10 of IC50 across a set of molecules
- System: MCF7 cells (breast tumor cells) WT
- EXPERIMENT NOTES: Test B: cell proliferation/viability assay (CellTiter-Glo) on MCF7 WT
- Format: cell-based
- REPORTED CONDITIONS: Homo sapiens, MCF7, 168 h, 7 days of compound exposure
- Experimental: Test B: Cell Proliferation/Viability Assay on MCF7 (Breast Tumor Cells) WT and Mutants Cell Lines Test B involves measuring the in vitro proliferation activity of the compounds of the invention by analyzing the viability of the tumor cells. The measurements of the viability were made using a breast cancer cell viability assay as described hereunder. […] The percent of viability of each sample was determined as follows: (RLU sample−RLU background/RLU untreated−RLU background)*100=% viability.
Units before log transform: nM; reported quantity: IC50; transform: log10.

Please report the recorded log10 of IC50 for Oc1ccc2c(c1)SCC(c1ccc(OC(F)(F)F)cc1F)=C2c1ccc(O[C@H]2CCN(CCCF)C2)cc1 . -0.22

###

- ASSAYED TARGET: His6-ERα298-554 Y537S mutant (ERα ligand-binding domain) (Homo sapiens (Human), UniProt P03372, Y537S)
- Sequence (P03372 298-554 Y537S): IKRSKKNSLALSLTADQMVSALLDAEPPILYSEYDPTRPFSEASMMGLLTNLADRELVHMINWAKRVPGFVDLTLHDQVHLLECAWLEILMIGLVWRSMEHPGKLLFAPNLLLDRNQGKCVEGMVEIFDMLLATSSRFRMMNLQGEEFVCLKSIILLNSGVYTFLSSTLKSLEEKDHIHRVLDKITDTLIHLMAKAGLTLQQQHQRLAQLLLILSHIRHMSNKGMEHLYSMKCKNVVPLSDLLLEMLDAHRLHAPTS
- EXPERIMENT NOTES: Test A: biochemical antagonist activity, LanthaScreen TR-FRET ERα coactivator assay, Y537S mutant
- REPORTED CONDITIONS: protocol with 3 nM estradiol; read-out: Antagonism Y537S IC50
Documented pIC50 across a set of molecules
pIC50 is a log-scale quantity: -log10 of the concentration expressed in molar.

// known answers, use as guide
O=S1(=O)CCC(c2ccc(F)cc2Cl)=C(c2ccc(O[C@H]3CCN(CCCF)C3)cc2)c2ccc(O)cc21 | 7.47
Oc1ccc2c(c1)OCCC(c1cccc3[nH]ccc13)=C2c1ccc(O[C@H]2CCN(CCCF)C2)cc1 | 7.59
CCOc1ccc(C2=C(c3ccc(O[C@H]4CCN(CCCF)C4)cc3)c3ccc(O)cc3SCC2)cc1F | 7.19
Cc1cc(F)ccc1C1=C(c2ccc(O[C@H]3CCN(CCCF)C3)cc2)c2ccc(O)cc2S(=O)(=O)CC1 | 7.48

Please report the recorded pIC50 for Oc1ccc2c(c1)SCCC(c1ccc(Cl)cc1F)=C2c1ccc(O[C@H]2CCN(CCCF)C2)cc1 . 7.80

Please report the recorded pIC50 for Oc1ccc2c(c1)C(c1ccc(O[C@H]3CCN(CCCF)C3)cc1)=C(c1ccc(Cl)cc1F)CCS2 . 7.27

Please report the recorded pIC50 for Cc1ccc(C2=C(c3ccc(O[C@H]4CCN(CCCF)C4)cc3)c3ccc(O)cc3S(=O)(=O)CC2)c(F)c1 . 7.39

Please report the recorded pIC50 for Cc1c(O)ccc2c1OCCC(c1ccc3c(c1)CCN3)=C2c1ccc(O[C@H]2CCN(CCCF)C2)cc1 . 6.63

Please report the recorded pIC50 for Oc1ccc2c(c1Cl)OCCC(c1ccc3[nH]ccc3c1)=C2c1ccc(O[C@H]2CCN(CCCF)C2)cc1 . 6.98

Please report the recorded pIC50 for Cc1c(Cl)cccc1C1=C(c2ccc(O[C@H]3CCN(CCCF)C3)cc2)c2ccc(O)cc2SCC1 . 7.72

Please report the recorded pIC50 for Oc1ccc(C2=C(c3ccc(O[C@H]4CCN(CCCF)C4)cc3)c3cc(O)ccc3CC2)c(F)c1 . 8.10

Please report the recorded pIC50 for Cc1ccc(C2=C(c3ccc(O[C@H]4CCN(CCCF)C4)cc3)c3cc(C)c(O)cc3OCC2)c(F)c1 . 6.27

Please report the recorded pIC50 for Oc1ccc2c(c1Cl)OCCC(c1ccc3cc[nH]c3c1)=C2c1ccc(O[C@H]2CCN(CCCF)C2)cc1 . 5.85

###

- Tested on: MCF7 cells (breast tumor cells) WT
- EXPERIMENT NOTES: Test B: cell proliferation/viability assay (CellTiter-Glo) on MCF7 WT
- Assay type: cell-based
- REPORTED CONDITIONS: Homo sapiens, MCF7, 168 h, 7 days of compound exposure
Just a reminder that ties go to F: only IC50 strictly below 400 pM counts as T.

Would you please look over these solved cases?
Nc1ccc(C2=C(c3ccc(O[C@H]4CCN(CCCF)C4)cc3)c3ccc(O)cc3SC2)c(F)n1 [Example 72] | F
CC(C)(C)OC(=O)N1CCOc2ccc(C3=C(c4ccc(O[C@H]5CCN(CCCF)C5)cc4)c4ccc(O)cc4SC3)cc21 [Example 59] | F
CCOc1ccc(C2=C(c3ccc(O[C@H]4CCN(CCCF)C4)nc3)c3ccc(O)cc3SC2)c(F)n1 [Example 79] | T
Oc1ccc2c(c1)OCCC(c1ccc3occc3c1)=C2c1ccc(O[C@H]2CCN(CCCF)C2)cc1 [Example 120] | F
CCOc1ccc(C2=C(c3ccc(O[C@H]4CCN(CCCF)C4)cc3)c3ccc(O)cc3SCC2)c(F)n1 [Example 187] | T

With those in mind, consider the next compound.
Below 400 pM on IC50? Entry CC1Cc2cc(C3=C(c4ccc(O[C@H]5CCN(CCCF)C5)cc4)c4ccc(O)cc4SCC3)ccc2O1 (stereo partly drawn) [Example 197] T

###

- ASSAYED TARGET: His6-ERα298-554 Y537S mutant (ERα ligand-binding domain) (Homo sapiens (Human), UniProt P03372, Y537S)
- EXPERIMENT NOTES: Test A: biochemical antagonist activity, LanthaScreen TR-FRET ERα coactivator assay, Y537S mutant
- REPORTED CONDITIONS: protocol with 3 nM estradiol; read-out: Antagonism Y537S IC50
RESULT TYPE: IC50 (nM)
Entry rule: numbers only, all in nM.

Oc1ccc2c(c1)SCC(c1ccc(OC(F)F)c(F)c1)=C2c1ccc(O[C@H]2CCN(CCCF)C2)cc1 | 415
Oc1ccc2c(c1)SCCC(c1cccc(F)c1Cl)=C2c1ccc(O[C@H]2CCN(CCCF)C2)cc1 | 9
Oc1ccc2c(c1)OCCC(c1ccc3occc3c1)=C2c1ccc(O[C@H]2CCN(CCCF)C2)cc1 | 4
Cc1cc(C2=C(c3ccc(O[C@H]4CCN(CCCF)C4)cc3)c3cc(O)ccc3SCC2)ccc1Cl | 80
Cc1cc2c(cc1O)OCCC(c1cccc(Cl)c1C)=C2c1ccc(O[C@H]2CCN(CCCF)C2)cc1 | 352

Please report the recorded IC50 for Oc1ccc2c(c1)SCC(c1ccc(SC(F)(F)F)cc1)=C2c1ccc(O[C@H]2CCN(CCCF)C2)cc1 . 362

Please report the recorded IC50 for Oc1ccc2c(c1)OCCC(c1ccc3[nH]ccc3c1)=C2c1ccc(O[C@H]2CCN(CCCF)C2)cc1 . 26

###

- ASSAYED TARGET: ERα in MCF7 cells (Homo sapiens (Human))
- EXPERIMENT NOTES: Test C: estrogen receptor degradation activity, ERα in cell western assay in MCF7 cells
- Format: cell-based
- REPORTED CONDITIONS: 4 hours post compound addition, ERα in cell western, read-out: Degradation IC50
Documented log10 DC50 across a set of compounds
Units before log transform: nM; reported quantity: DC50; transform: log10.

Oc1ccc2c(c1)OCCC(c1cccc3[nH]ccc13)=C2c1ccc(O[C@H]2CCN(CCCF)C2)cc1 [Example 110] | -0.70

Please report the recorded log10 DC50 for Oc1ccc2c(c1)SCC(c1ccc(Cl)cc1Cl)=C2c1ccc(O[C@H]2CCN(CCCF)C2)cc1 [Example 21] . 0.48

Please report the recorded log10 DC50 for C[C@H]1Cc2cc(C3=C(c4ccc(O[C@H]5CCN(CCCF)C5)cc4)c4ccc(O)cc4SCC3)ccc2O1 [Example 204] . -0.22

Please report the recorded log10 DC50 for CCOc1cc(C2=C(c3ccc(O[C@H]4CCN(CCCF)C4)cc3)c3ccc(O)cc3SCC2)ccc1F [Example 195] . -0.40

Please report the recorded log10 DC50 for Oc1ccc2c(c1)SCCC(c1ccc(F)cc1Cl)=C2c1ccc(O[C@H]2CCN(CCCF)C2)cc1 [Example 159] . -0.30

Please report the recorded log10 DC50 for CCOc1ccc(C2=C(c3ccc(O[C@H]4CCN(CCCF)C4)nc3)c3ccc(O)cc3SC2)c(F)n1 [Example 79] . -0.70

Please report the recorded log10 DC50 for Oc1ccc2c(c1)SCCC(c1ccc(F)nc1F)=C2c1ccc(O[C@H]2CCN(CCCF)C2)cc1 [Example 215] . -0.70

Please report the recorded log10 DC50 for Oc1ccc2c(c1)SCCC(c1ccc(OC(F)F)c(F)c1)=C2c1ccc(O[C@H]2CCN(CCCF)C2)nc1 [Example 207] . -0.30

Please report the recorded log10 DC50 for Oc1ccc2c(c1Cl)OCCC(c1ccc3c(c1)CCN3)=C2c1ccc(O[C@H]2CCN(CCCF)C2)cc1 [Example 115] . 0.78
